# Tested on: SNB-19 CNS
# EXPERIMENT: NCI-60 one-dose screen, 48 h (100 = growth as untreated, 0 = no growth, -100 = all killed)
# MEASUREMENT CONTEXT: 10 µM unless noted
Compounds without any hit were thinned out: in the full panel of roughly 83,000, 20% have a hit.
Entries annotated with measured growth
Give the value, in units of %, as a plain number.

COc1ccc(-c2c(-c3ccccc3)noc2N)cc1OC	109

# get_value(readout= growth, system= SNB-19 CNS) for C#CCNC(=O)[C@H](Cc1ccccc1)NC(=O)[C@]12CC[C@@H](C(=C)C)[C@@H]1[C@H]1CC[C@@H]3[C@@]4(C)Cc5c([nH]c6ccccc56)C(C)(C)[C@@H]4CC[C@@]3(C)[C@]1(C)CC2
90.9

# get_value(readout= growth, system= SNB-19 CNS) for COc1cc(/C=C/C(=O)c2c(C)oc3nc[nH]c(=O)c23)ccc1O
97.3

# get_value(readout= growth, system= SNB-19 CNS) for Cc1c(C2=CCCCC2)c2ccccn2c1C(=O)c1cccc(S(=O)(=O)N2CCOCC2)c1
101

# get_value(readout= growth, system= SNB-19 CNS) for Fc1ccc(C2CC(c3cccc(Nc4ccncc4)c3)=NN2c2cc(Cl)cc(Cl)c2)cc1 (stereo unspecified)
82.3

# get_value(readout= growth, system= SNB-19 CNS) for CCCCCCOc1ccc(C(=N)N(CCCC)CCCC)c2ccccc12
-88.9

The measured values listed here are drawn from PubChem BioAssay (NCI).
